Tested on: PC-3 [JPC-3]
Assay: relative viability (nuclei count vs DMSO), 5 days (fraction); higher = more cells survive
Conditions: first compound 0.5 µM
Reported relative viability is given for each of the following molecules.

// below: answered molecules
Molecule	Obs value
COc1cc2nccc(Oc3ccc(NC(=O)Nc4cc(C)on4)c(Cl)c3)c2cc1OC [Tivozanib] + CC(=O)Nc1cccc(-n2c(=O)n(C3CC3)c(=O)c3c(Nc4ccc(I)cc4F)n(C)c(=O)c(C)c32)c1 [Trametinib] (partner 0.02 µM)	0.811
COc1cc2nccc(Oc3ccc(NC(=O)Nc4cc(C)on4)c(Cl)c3)c2cc1OC [Tivozanib] + CC1(C)CCC(c2ccc(Cl)cc2)=C(CN2CCN(c3ccc(C(=O)NS(=O)(=O)c4ccc(N[C@H](CCN5CCOCC5)CSc5ccccc5)c(S(=O)(=O)C(F)(F)F)c4)cc3)CC2)C1 [Navitoclax] (partner 0.5 µM)	0.809

Read the next record carefully.
So what's the measured relative viability for this one? Nc1ccn([C@@H]2O[C@H](CO)[C@@H](O)[C@@H]2O)c(=O)n1 [Cytarabine] + C[C@]1(O)C[C@@H](c2nc(-c3ccc4ccc(-c5ccccc5)nc4c3)c3c(N)nccn32)C1 [Linsitinib] (partner 1 µM) 0.65

* * *

Tested on: NCI-H2087
Test: relative viability (nuclei count vs DMSO), 5 days (fraction); higher = more cells survive
Conditions: first compound 0.0002 µM
The reader will find reported relative viability values listed item by item below.
# print the numeric value only

// map CC(=O)O[C@@]12CO[C@@H]1C[C@H](O)[C@@]1(C)C(=O)[C@H](O)C3=C(C)[C@@H](OC(=O)[C@H](O)[C@@H](NC(=O)OC(C)(C)C)c4ccccc4)C[C@@](O)([C@@H](OC(=O)c4ccccc4)[C@H]21)C3(C)C [Docetaxel] + CC(C)C[C@H](NC(=O)[C@H](Cc1ccccc1)NC(=O)c1cnccn1)B(O)O [Bortezomib] (partner 0.002 µM) to recorded relative viability (system: NCI-H2087) 0.701

Please answer likewise for CC(=O)O[C@@]12CO[C@@H]1C[C@H](O)[C@@]1(C)C(=O)[C@H](O)C3=C(C)[C@@H](OC(=O)[C@H](O)[C@@H](NC(=O)OC(C)(C)C)c4ccccc4)C[C@@](O)([C@@H](OC(=O)c4ccccc4)[C@H]21)C3(C)C [Docetaxel] + CS(=O)(=O)N1CCN(Cc2cc3nc(-c4cccc5[nH]ncc45)nc(N4CCOCC4)c3s2)CC1 [Pictilisib] (partner 1 µM) 0.841

Would you kindly repeat that for CC(=O)O[C@@]12CO[C@@H]1C[C@H](O)[C@@]1(C)C(=O)[C@H](O)C3=C(C)[C@@H](OC(=O)[C@H](O)[C@@H](NC(=O)OC(C)(C)C)c4ccccc4)C[C@@](O)([C@@H](OC(=O)c4ccccc4)[C@H]21)C3(C)C [Docetaxel] + CS(=O)(=O)CCNCc1ccc(-c2ccc3ncnc(Nc4ccc(OCc5cccc(F)c5)c(Cl)c4)c3c2)o1 [Lapatinib] (partner 2 µM) ? 0.831

Another molecule to check: CC(=O)O[C@@]12CO[C@@H]1C[C@H](O)[C@@]1(C)C(=O)[C@H](O)C3=C(C)[C@@H](OC(=O)[C@H](O)[C@@H](NC(=O)OC(C)(C)C)c4ccccc4)C[C@@](O)([C@@H](OC(=O)c4ccccc4)[C@H]21)C3(C)C [Docetaxel] + Cc1nc(NC(=O)N2CCC[C@H]2C(N)=O)sc1-c1ccnc(C(C)(C)C(F)(F)F)c1 [Alpelisib] (partner 2 µM) 0.916

Follow-up entry: CC(=O)O[C@@]12CO[C@@H]1C[C@H](O)[C@@]1(C)C(=O)[C@H](O)C3=C(C)[C@@H](OC(=O)[C@H](O)[C@@H](NC(=O)OC(C)(C)C)c4ccccc4)C[C@@](O)([C@@H](OC(=O)c4ccccc4)[C@H]21)C3(C)C [Docetaxel] + CC1(C)CCC(c2ccc(Cl)cc2)=C(CN2CCN(c3ccc(C(=O)NS(=O)(=O)c4ccc(N[C@H](CCN5CCOCC5)CSc5ccccc5)c(S(=O)(=O)C(F)(F)F)c4)cc3)CC2)C1 [Navitoclax] (partner 0.5 µM) 0.964

What do you have for CC(=O)O[C@@]12CO[C@@H]1C[C@H](O)[C@@]1(C)C(=O)[C@H](O)C3=C(C)[C@@H](OC(=O)[C@H](O)[C@@H](NC(=O)OC(C)(C)C)c4ccccc4)C[C@@](O)([C@@H](OC(=O)c4ccccc4)[C@H]21)C3(C)C [Docetaxel] + CCNC(=O)c1noc(-c2cc(C(C)C)c(O)cc2O)c1-c1ccc(CN2CCOCC2)cc1 [Luminespib] (partner 0.01 µM) ? 0.166

* * *

Test system: CAL-12T
Test: relative viability (nuclei count vs DMSO), 5 days (fraction); higher = more cells survive
Details: first compound 0.5 µM
Readout type: relative viability
// return a plain number; no unit text

Requested field: relative viability. Item: Nc1ccn([C@@H]2O[C@H](CO)[C@@H](O)[C@@H]2O)c(=O)n1 [Cytarabine] + C[C@]1(O)C[C@@H](c2nc(-c3ccc4ccc(-c5ccccc5)nc4c3)c3c(N)nccn32)C1 [Linsitinib] (partner 1 µM) 0.203

Subsequent entry: COc1cc2nccc(Oc3ccc(NC(=O)Nc4cc(C)on4)c(Cl)c3)c2cc1OC [Tivozanib] + C[C@@H](Oc1cc(-c2cnn(C3CCNCC3)c2)cnc1N)c1c(Cl)ccc(F)c1Cl [Crizotinib] (partner 1 µM) 0.614

Would you kindly repeat that for COc1cc2nccc(Oc3ccc(NC(=O)Nc4cc(C)on4)c(Cl)c3)c2cc1OC [Tivozanib] + CC(C)C[C@H](NC(=O)[C@H](Cc1ccccc1)NC(=O)c1cnccn1)B(O)O [Bortezomib] (partner 0.002 µM) ? 1.03

Repeat for the following compound: COc1cc2nccc(Oc3ccc(NC(=O)Nc4cc(C)on4)c(Cl)c3)c2cc1OC [Tivozanib] + CS(=O)(=O)N1CCN(Cc2cc3nc(-c4cccc5[nH]ncc45)nc(N4CCOCC4)c3s2)CC1 [Pictilisib] (partner 1 µM) 0.404

* * *

Form field: relative viability (one value per entry).
Test system: PC-3 [JPC-3]
Assay: relative viability (nuclei count vs DMSO), 5 days (fraction); higher = more cells survive
Conditions: first compound 4 µM
Please respond with just the number, no unit label.

Molecule	Obs value
Cc1sc2c(c1C)C(c1ccc(Cl)cc1)=N[C@@H](CC(=O)OC(C)(C)C)c1nnc(C)n1-2 [JQ1] + CS(=O)(=O)N1CCN(Cc2cc3nc(-c4cccc5[nH]ncc45)nc(N4CCOCC4)c3s2)CC1 [Pictilisib] (partner 1 µM)	0.382
Cc1sc2c(c1C)C(c1ccc(Cl)cc1)=N[C@@H](CC(=O)OC(C)(C)C)c1nnc(C)n1-2 [JQ1] + Nc1ncn([C@H]2C[C@H](O)[C@@H](CO)O2)c(=O)n1 [Decitabine] (partner 2 µM)	0.561

Consider the molecule shown here: Cc1sc2c(c1C)C(c1ccc(Cl)cc1)=N[C@@H](CC(=O)OC(C)(C)C)c1nnc(C)n1-2 [JQ1] + NC(=O)Nc1cc(-c2cccc(F)c2)sc1C(=O)N[C@H]1CCCNC1 [AZD7762] (partner 0.2 µM) What is its recorded relative viability? 0.438

* * *

System: LK-2
Assay: relative viability (nuclei count vs DMSO), 5 days (fraction); higher = more cells survive
Settings: first compound 2.53 µM
Consider the cut-off 0.6. If the recorded relative viability is strictly smaller, the label is label 1; if not, the label is label 0.

Below, 7 molecules whose answers are already recorded.
Molecule	Assayed target	Assigned class
Cc1cnc(-c2cnc(NCCNc3ccc(C#N)cn3)nc2-c2ccc(Cl)cc2Cl)[nH]1 + Cc1nc(NC(=O)N2CCC[C@H]2C(N)=O)sc1-c1ccnc(C(C)(C)C(F)(F)F)c1 [Alpelisib] (partner 2 µM)	LK-2	label 0
Cc1cnc(-c2cnc(NCCNc3ccc(C#N)cn3)nc2-c2ccc(Cl)cc2Cl)[nH]1 + CCNC(=O)c1noc(-c2cc(C(C)C)c(O)cc2O)c1-c1ccc(CN2CCOCC2)cc1 [Luminespib] (partner 0.01 µM)	LK-2	label 1
O=c1[nH]c2ccccc2n1C1CCN(CCCC(c2ccc(F)cc2)c2ccc(F)cc2)CC1 [Pimozide] + C[C@@H](Oc1cc(-c2cnn(C3CCNCC3)c2)cnc1N)c1c(Cl)ccc(F)c1Cl [Crizotinib] (partner 1 µM)	LK-2	label 1
Cc1cnc(-c2cnc(NCCNc3ccc(C#N)cn3)nc2-c2ccc(Cl)cc2Cl)[nH]1 + CS(=O)(=O)CCNCc1ccc(-c2ccc3ncnc(Nc4ccc(OCc5cccc(F)c5)c(Cl)c4)c3c2)o1 [Lapatinib] (partner 2 µM)	LK-2	label 0
Cc1cnc(-c2cnc(NCCNc3ccc(C#N)cn3)nc2-c2ccc(Cl)cc2Cl)[nH]1 + N=C(N)NC(=N)NCCc1ccccc1 [Phenformin] (partner 250 µM)	LK-2	label 0
O=c1[nH]c2ccccc2n1C1CCN(CCCC(c2ccc(F)cc2)c2ccc(F)cc2)CC1 [Pimozide] + Cc1nc(NC(=O)N2CCC[C@H]2C(N)=O)sc1-c1ccnc(C(C)(C)C(F)(F)F)c1 [Alpelisib] (partner 2 µM)	LK-2	label 0
Cc1cnc(-c2cnc(NCCNc3ccc(C#N)cn3)nc2-c2ccc(Cl)cc2Cl)[nH]1 + Nc1nc2[nH]cc(CCc3ccc(C(=O)N[C@@H](CCC(=O)O)C(=O)O)cc3)c2c(=O)[nH]1 [Pemetrexed] (partner 0.2 µM)	LK-2	label 1

Take the molecule O=c1[nH]c2ccccc2n1C1CCN(CCCC(c2ccc(F)cc2)c2ccc(F)cc2)CC1 [Pimozide] + N=C(N)NC(=N)NCCc1ccccc1 [Phenformin] (partner 250 µM) and say whether its relative viability is less than 0.6. label 1
